system: RXRa homodimer (NR concentration 180 nM); assay: PBM binding z-score (relative to random genomic background probes); higher = stronger binding; sequences stand for … in GC…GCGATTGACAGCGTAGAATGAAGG
OBSERVATION_TYPE: PBM binding z-score

// PBM binding z-score (RXRa homodimer (NR concentration 180 nM)) for GCGACTGGGGCAAAGCAGGTTCCCATAAGGTTGG = -0.314

Known value: RXRa homodimer (NR concentration 180 nM) PBM binding z-score of the sequence TGTATTAGTTGATTAGGGCAACCGAAACAGCGGA equals -0.0234

Given the sequence CGTCCAAGGTCATAGGAGGTCAGTAAAGACAGAT and test system RXRa homodimer (NR concentration 180 nM), the measured PBM binding z-score is 6.73

Entry CCTACTGGGCCAAAGGTCATTGATTCCAATGCTC under RXRa homodimer (NR concentration 180 nM) had PBM binding z-score of 7.21

Measured PBM binding z-score (RXRa homodimer (NR concentration 180 nM)), entry ATCTCTAGGTAAAGTTCAGGGAAAGATCGATAGA : 1.98

Response field PBM binding z-score (RXRa homodimer (NR concentration 180 nM)) for item AGTCAAAGTTCAGGACGAGGCAACGTAAAGCACG : 2.86

Log: RXRa homodimer (NR concentration 180 nM), sequence TAGCCTAGGTCATTGGGTCAGTATAGTACGCATC , PBM binding z-score = 3.63

Considering GTACCAAGGTGAATAGGTGGTTGATGAGTAGGCG , its PBM binding z-score with RXRa homodimer (NR concentration 180 nM) was recorded as 0.63

So the reported PBM binding z-score for CCACGGAGGACAACAGGAGGTCAGAGCTGCCAGA , on RXRa homodimer (NR concentration 180 nM), turned out to be 2.08

Short answer on RXRa homodimer (NR concentration 180 nM) for GGAACGAGGGCAACGTTGATAGCATCTGTCGACG , PBM binding z-score: 0.986

* * *

test system: THRa homodimer (NR concentration 90 nM); experiment: PBM binding z-score (relative to random genomic background probes); higher = stronger binding; sequences stand for … in GC…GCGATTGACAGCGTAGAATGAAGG
Record yes (1) whenever PBM binding z-score is at 0.7 or higher; record no (0) when lower.

Can CGAACTAGCTCATCCAGGACAGTGAATACATTGA be said to have PBM binding z-score at or above 0.7?
yes (1)

Tell me whether PBM binding z-score is at least 0.7 here: TCGAGTCGGTTAGGGGCATTCAGAATGGCGTCGA
no (0)

Given the entry AGAATGAGGTTACCAAAGATCAGGGACACGCTTG , answer whether its PBM binding z-score meets or surpasses 0.7.
yes (1)

Is reported PBM binding z-score greater than or equal to 0.7 here: TAGCCTAGGTCATTGGGCCAGTAGAGTACGCATC
yes (1)

Kindly determine if PBM binding z-score recorded for TCATATAGGTATATGCTAGGTGAAAGTCCGATCT is above or exactly 0.7.
yes (1)

hey, is PBM binding z-score for this one >= 0.7? CCTATTAGTTGACCATAAGGGCTACCGAAGCTCG
no (0)

Hi team, for CGTCCAAGTTCAAGGTAACGTAACAGAAAGCAGC , is the recorded PBM binding z-score at or above 0.7?
yes (1)

// inclusive: PBM binding z-score at least 0.7? input: CAAACTAGATCAAGGTCAAAGTCGGTTTGTGCCA
yes (1)

Is PBM binding z-score for AGACCGAGGGCAATGAGTTGATAGCACGGGTGGC at or above 0.7?
no (0)

// inclusive: PBM binding z-score at least 0.7? input: CTGGAAAGGTCGTGCTCAGGTGAGTATACCAAAC
yes (1)

Form field: PBM binding z-score at least 0.7? Entry: TCATATCGGTAAATGCTAGGTGAAAGTCCGATCT
no (0)
